# Study Target: T1, human PVRIG-mFc protein (Acro, PVG-H5253) (human, UniProt Q6DKI7 41-171, limits assumed)
# T1 construct: bought protein
# T1 sequence (looked up): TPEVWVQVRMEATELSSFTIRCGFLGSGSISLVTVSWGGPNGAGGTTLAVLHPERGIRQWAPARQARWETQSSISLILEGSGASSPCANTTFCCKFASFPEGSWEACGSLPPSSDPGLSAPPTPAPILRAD
# Protocol Notes: FACS competition, PVRIG-mFc binding to CHO-K1-CD112 cells, competitor CD112 on cells
% IC50 to SRF813-hIgG1: recorded values
Give a bare numeral; the unit % is implied.

Answered examples (3):
Query: % IC50 to SRF813-hIgG1; subject: PVRIG-A43 (Fc fusion, heavy chain antibody VHH-hinge-CH2-CH3, human IgG1 constant part; not shown: human IgG1 hinge-CH2-CH3) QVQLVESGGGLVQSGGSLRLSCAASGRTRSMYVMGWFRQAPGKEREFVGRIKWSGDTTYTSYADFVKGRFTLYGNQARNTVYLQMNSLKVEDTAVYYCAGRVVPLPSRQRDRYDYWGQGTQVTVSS
119

Query: % IC50 to SRF813-hIgG1; subject: PVRIG-A113 (Fc fusion, heavy chain antibody VHH-hinge-CH2-CH3, human IgG1 constant part; not shown: human IgG1 hinge-CH2-CH3) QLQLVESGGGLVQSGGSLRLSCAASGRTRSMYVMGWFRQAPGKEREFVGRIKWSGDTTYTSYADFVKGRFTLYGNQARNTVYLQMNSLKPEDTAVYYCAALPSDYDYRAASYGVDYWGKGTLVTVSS
97.9

Query: % IC50 to SRF813-hIgG1; subject: PVRIG-A60 (Fc fusion, heavy chain antibody VHH-hinge-CH2-CH3, human IgG1 constant part; not shown: human IgG1 hinge-CH2-CH3) QVQLVESGGGLVQSGGSLRLSCAASGRTRSMYVMGWFRQAPGKEREFVGRIKWSGDTTYTSYADFVKGRFTLYGNQARNTVYLQMNSLKPEDAAVYYCNLRRLDGVNYWGKGTLVTVSS
96.4

Then this binder:
Query: % IC50 to SRF813-hIgG1; subject: PVRIG-A50 (Fc fusion, heavy chain antibody VHH-hinge-CH2-CH3, human IgG1 constant part; also called PVRIG-50; not shown: human IgG1 hinge-CH2-CH3) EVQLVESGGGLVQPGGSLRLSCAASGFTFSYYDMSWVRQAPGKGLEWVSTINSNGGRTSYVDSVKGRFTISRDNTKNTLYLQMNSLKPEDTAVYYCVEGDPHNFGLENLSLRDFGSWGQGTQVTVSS
91.8
